assay: Octanol water partition coefficient, log P of the compound by reverse-phase thin-layer chromatography; assay type: physicochemical

querySmiles	logP
N=C(N)NCCC[C@H](N)C(=O)Nc1ccc(-c2c3nc(c(-c4ccc(N)cc4)c4ccc([nH]4)c(-c4ccc(N)cc4)c4nc(c(-c5ccc(N)cc5)c5ccc2[nH]5)C=C4)C=C3)cc1	1.25
NCCCC[C@H](N)C(=O)Nc1ccc(-c2c3nc(c(-c4ccccc4)c4ccc([nH]4)c(-c4ccc(N)cc4)c4nc(c(-c5ccccc5)c5ccc2[nH]5)C=C4)C=C3)cc1	1.46
N[C@@H](Cc1c[nH]cn1)C(=O)Nc1ccc(-c2c3nc(c(-c4ccccc4)c4ccc([nH]4)c(-c4ccccc4)c4nc(c(-c5ccccc5)c5ccc2[nH]5)C=C4)C=C3)cc1	1.6
NCCCC[C@H](N)C(=O)Nc1ccc(-c2c3nc(c(-c4ccc(NC(=O)[C@@H](N)CCCCN)cc4)c4ccc([nH]4)c(-c4ccccc4)c4nc(c(-c5ccccc5)c5ccc2[nH]5)C=C4)C=C3)cc1	1.39
Nc1ccc(-c2c3nc(c(-c4ccc(N)cc4)c4ccc([nH]4)c(-c4ccc(NC(=O)[C@@H](N)Cc5c[nH]cn5)cc4)c4nc(c(-c5ccc(N)cc5)c5ccc2[nH]5)C=C4)C=C3)cc1	1.53

###

test system: Staphylococcus aureus; test: Bactericidal activity against methicillin-resistant Staphylococcus aureus incubated in dark for 30 mins followed by exposure to light fluences at 650 nm and 6 J/cm2 and then incubated overnight followed by further incubation on LB agar plates for another 24 hrs; format: functional; settings: light or radiation study
Listed molecules paired with reported MBC

querySmiles	MBC (µM)
NCCCC[C@H](N)C(=O)Nc1ccc(-c2c3nc(c(-c4ccc(N)cc4)c4ccc([nH]4)c(-c4ccc(NC(=O)[C@@H](N)CCCCN)cc4)c4nc(c(-c5ccc(N)cc5)c5ccc2[nH]5)C=C4)C=C3)cc1	15.6
N=C(N)NCCC[C@H](N)C(=O)Nc1ccc(-c2c3nc(c(-c4ccccc4)c4ccc([nH]4)c(-c4ccccc4)c4nc(c(-c5ccccc5)c5ccc2[nH]5)C=C4)C=C3)cc1	125
N[C@@H](Cc1c[nH]cn1)C(=O)Nc1ccc(-c2c3nc(c(-c4ccccc4)c4ccc([nH]4)c(-c4ccccc4)c4nc(c(-c5ccccc5)c5ccc2[nH]5)C=C4)C=C3)cc1	250
NCCCC[C@H](N)C(=O)Nc1ccc(-c2c3nc(c(-c4ccc(NC(=O)[C@@H](N)CCCCN)cc4)c4ccc([nH]4)c(-c4ccc(NC(=O)[C@@H](N)CCCCN)cc4)c4nc(c(-c5ccc(N)cc5)c5ccc2[nH]5)C=C4)C=C3)cc1	62.5
NCCCC[C@H](N)C(=O)Nc1ccc(-c2c3nc(c(-c4ccccc4)c4ccc([nH]4)c(-c4ccc(NC(=O)[C@@H](N)CCCCN)cc4)c4nc(c(-c5ccccc5)c5ccc2[nH]5)C=C4)C=C3)cc1	31.2
Nc1ccc(-c2c3nc(c(-c4ccccc4)c4ccc([nH]4)c(-c4ccc(N)cc4)c4nc(c(-c5ccccc5)c5ccc2[nH]5)C=C4)C=C3)cc1	125

###

Listed compounds paired with reported MIC
system: Staphylococcus aureus; test: Antibacterial activity against methicillin-resistant Staphylococcus aureus incubated in dark for 30 mins measured after 24 hrs; assay type: functional

querySmiles	unitAbbreviation	MIC
NCCCC[C@H](N)C(=O)Nc1ccc(-c2c3nc(c(-c4ccc(NC(=O)[C@@H](N)CCCCN)cc4)c4ccc([nH]4)c(-c4ccc(NC(=O)[C@@H](N)CCCCN)cc4)c4nc(c(-c5ccc(N)cc5)c5ccc2[nH]5)C=C4)C=C3)cc1	µM	125
NCCCC[C@H](N)C(=O)Nc1ccc(-c2c3nc(c(-c4ccccc4)c4ccc([nH]4)c(-c4ccc(NC(=O)[C@@H](N)CCCCN)cc4)c4nc(c(-c5ccccc5)c5ccc2[nH]5)C=C4)C=C3)cc1	µM	125
Nc1ccc(-c2c3nc(c(-c4ccc(N)cc4)c4ccc([nH]4)c(-c4ccccc4)c4nc(c(-c5ccccc5)c5ccc2[nH]5)C=C4)C=C3)cc1	µM	125
Nc1ccc(-c2c3nc(c(-c4ccccc4)c4ccc([nH]4)c(-c4ccccc4)c4nc(c(-c5ccccc5)c5ccc2[nH]5)C=C4)C=C3)cc1	µM	125
NCCCC[C@H](N)C(=O)Nc1ccc(-c2c3nc(c(-c4ccc(NC(=O)[C@@H](N)CCCCN)cc4)c4ccc([nH]4)c(-c4ccccc4)c4nc(c(-c5ccccc5)c5ccc2[nH]5)C=C4)C=C3)cc1	µM	62.5

###

Listed compounds paired with reported MIC
system: Staphylococcus aureus; assay: Antibacterial activity against methicillin-resistant Staphylococcus aureus incubated in dark for 30 mins measured after 24 hrs; assay type: functional

querySmiles	unitAbbreviation	MIC
Nc1ccc(-c2c3nc(c(-c4ccccc4)c4ccc([nH]4)c(-c4ccc(N)cc4)c4nc(c(-c5ccccc5)c5ccc2[nH]5)C=C4)C=C3)cc1	µM	62.5
N=C(N)NCCC[C@H](N)C(=O)Nc1ccc(-c2c3nc(c(-c4ccccc4)c4ccc([nH]4)c(-c4ccccc4)c4nc(c(-c5ccccc5)c5ccc2[nH]5)C=C4)C=C3)cc1	µM	125
N=C(N)NCCC[C@H](N)C(=O)Nc1ccc(-c2c3nc(c(-c4ccc(N)cc4)c4ccc([nH]4)c(-c4ccc(N)cc4)c4nc(c(-c5ccc(N)cc5)c5ccc2[nH]5)C=C4)C=C3)cc1	µM	62.5

###

system: Staphylococcus aureus; assay: Antibacterial activity against methicillin-resistant Staphylococcus aureus incubated in dark for 30 mins and grown for 24 hrs followed by further incubation on LB agar plates for another 24 hrs; type: functional

querySmiles	comparativeSign	MBC (µM)
N=C(N)NCCC[C@H](N)C(=O)Nc1ccc(-c2c3nc(c(-c4ccccc4)c4ccc([nH]4)c(-c4ccccc4)c4nc(c(-c5ccccc5)c5ccc2[nH]5)C=C4)C=C3)cc1	=	250
Nc1ccc(-c2c3nc(c(-c4ccc(N)cc4)c4ccc([nH]4)c(-c4ccc(NC(=O)[C@@H](N)Cc5c[nH]cn5)cc4)c4nc(c(-c5ccc(N)cc5)c5ccc2[nH]5)C=C4)C=C3)cc1	=	250
NCCCC[C@H](N)C(=O)Nc1ccc(-c2c3nc(c(-c4ccccc4)c4ccc([nH]4)c(-c4ccccc4)c4nc(c(-c5ccccc5)c5ccc2[nH]5)C=C4)C=C3)cc1	>	500
Nc1ccc(-c2c3nc(c(-c4ccc(N)cc4)c4ccc([nH]4)c(-c4ccccc4)c4nc(c(-c5ccccc5)c5ccc2[nH]5)C=C4)C=C3)cc1	=	500
NCCCC[C@H](N)C(=O)Nc1ccc(-c2c3nc(c(-c4ccc(NC(=O)[C@@H](N)CCCCN)cc4)c4ccc([nH]4)c(-c4ccccc4)c4nc(c(-c5ccccc5)c5ccc2[nH]5)C=C4)C=C3)cc1	=	125
NCCCC[C@H](N)C(=O)Nc1ccc(-c2c3nc(c(-c4ccc(NC(=O)[C@@H](N)CCCCN)cc4)c4ccc([nH]4)c(-c4ccc(NC(=O)[C@@H](N)CCCCN)cc4)c4nc(c(-c5ccc(N)cc5)c5ccc2[nH]5)C=C4)C=C3)cc1	=	500
NCCCC[C@H](N)C(=O)Nc1ccc(-c2c3nc(c(-c4ccc(N)cc4)c4ccc([nH]4)c(-c4ccccc4)c4nc(c(-c5ccccc5)c5ccc2[nH]5)C=C4)C=C3)cc1	=	250
NCCCC[C@H](N)C(=O)Nc1ccc(-c2c3nc(c(-c4ccccc4)c4ccc([nH]4)c(-c4ccc(N)cc4)c4nc(c(-c5ccccc5)c5ccc2[nH]5)C=C4)C=C3)cc1	=	250
Nc1ccc(-c2c3nc(c(-c4ccc(N)cc4)c4ccc([nH]4)c(-c4ccc(N)cc4)c4nc(c(-c5ccc(N)cc5)c5ccc2[nH]5)C=C4)C=C3)cc1	=	500
N=C(N)NCCC[C@H](N)C(=O)Nc1ccc(-c2c3nc(c(-c4ccc(N)cc4)c4ccc([nH]4)c(-c4ccc(N)cc4)c4nc(c(-c5ccc(N)cc5)c5ccc2[nH]5)C=C4)C=C3)cc1	=	500
N[C@@H](Cc1c[nH]cn1)C(=O)Nc1ccc(-c2c3nc(c(-c4ccccc4)c4ccc([nH]4)c(-c4ccccc4)c4nc(c(-c5ccccc5)c5ccc2[nH]5)C=C4)C=C3)cc1	=	500

###

test system: Staphylococcus aureus; assay: Antibacterial activity against methicillin-resistant Staphylococcus aureus incubated in dark for 30 mins measured after 24 hrs; format: functional
measuredMetric: MIC (µM)

querySmiles	measuredMetric	comparativeSign	measValue
NCCCC[C@H](N)C(=O)Nc1ccc(-c2c3nc(c(-c4ccccc4)c4ccc([nH]4)c(-c4ccc(N)cc4)c4nc(c(-c5ccccc5)c5ccc2[nH]5)C=C4)C=C3)cc1	MIC	=	125
N[C@@H](Cc1c[nH]cn1)C(=O)Nc1ccc(-c2c3nc(c(-c4ccccc4)c4ccc([nH]4)c(-c4ccccc4)c4nc(c(-c5ccccc5)c5ccc2[nH]5)C=C4)C=C3)cc1	MIC	=	125
Nc1ccc(-c2c3nc(c(-c4ccc(N)cc4)c4ccc([nH]4)c(-c4ccc(NC(=O)[C@@H](N)Cc5c[nH]cn5)cc4)c4nc(c(-c5ccc(N)cc5)c5ccc2[nH]5)C=C4)C=C3)cc1	MIC	=	62.5
NCCCC[C@H](N)C(=O)Nc1ccc(-c2c3nc(c(-c4ccccc4)c4ccc([nH]4)c(-c4ccccc4)c4nc(c(-c5ccccc5)c5ccc2[nH]5)C=C4)C=C3)cc1	MIC	>	500
